Values compiled from ChEMBL document CHEMBL3352469.

Molecular target: UniProt P41145
Assay: Antagonist activity at human recombinant kappa opioid receptor expressed in CHO cell membranes assessed as inhibition of U69593-induced response after 60 mins by [35S]GTPgammaS binding assay
Type: functional
Lab note: compare Ke with 20 nM, writing Satisfied if less and Not satisfied if equal or more.

                            chemical_smiles  classification
0  CN1C(=O)[C@@H](CCO)CC2=C1[C@@H]1Oc3c(O)ccc4c3[C@@]13CCN(C)[C@H](C4)[C@]3(O)C2   Not satisfied
1  CN1CC[C@]23c4c5ccc(O)c4O[C@H]2C2=C(C[C@@H](CCO)C(=O)N2Cc2ccccc2)C[C@@]3(O)[C@H]1C5   Not satisfied
2  CN1C(=O)[C@H](CCO)CC2=C1[C@@H]1Oc3c(O)ccc4c3[C@@]13CCN(C)[C@H](C4)[C@]3(O)C2   Not satisfied
3  O=C1[C@H](CCO)CC2=C([C@@H]3Oc4c(O)ccc5c4[C@@]34CCN(CC3CC3)[C@H](C5)[C@]4(O)C2)N1Cc1ccccc1       Satisfied
4  C[C@@H]1CC2=C([C@@H]3Oc4c(O)ccc5c4[C@@]34CCN(CC3CC3)[C@H](C5)[C@]4(O)C2)N(Cc2ccccc2)C1=O       Satisfied
5  CN1CC[C@]23c4c5ccc(O)c4O[C@H]2C2=C(CCC(=O)N2Cc2ccccc2)C[C@@]3(O)[C@H]1C5   Not satisfied
6  CN1CC[C@]23c4c5ccc(O)c4O[C@H]2C2=C(C[C@H](CCO)C(=O)N2Cc2ccccc2)C[C@@]3(O)[C@H]1C5       Satisfied
7  C[C@H]1CC2=C([C@@H]3Oc4c(O)ccc5c4[C@@]34CCN(CC3CC3)[C@H](C5)[C@]4(O)C2)N(Cc2ccccc2)C1=O       Satisfied
8  O=C1[C@@H](CCO)CC2=C([C@@H]3Oc4c(O)ccc5c4[C@@]34CCN(CC3CC3)[C@H](C5)[C@]4(O)C2)N1Cc1ccccc1       Satisfied

---

# reported pKi; entries follow
Target: Kappa-type opioid receptor (Homo sapiens)
Sequence (P41145 whole entry): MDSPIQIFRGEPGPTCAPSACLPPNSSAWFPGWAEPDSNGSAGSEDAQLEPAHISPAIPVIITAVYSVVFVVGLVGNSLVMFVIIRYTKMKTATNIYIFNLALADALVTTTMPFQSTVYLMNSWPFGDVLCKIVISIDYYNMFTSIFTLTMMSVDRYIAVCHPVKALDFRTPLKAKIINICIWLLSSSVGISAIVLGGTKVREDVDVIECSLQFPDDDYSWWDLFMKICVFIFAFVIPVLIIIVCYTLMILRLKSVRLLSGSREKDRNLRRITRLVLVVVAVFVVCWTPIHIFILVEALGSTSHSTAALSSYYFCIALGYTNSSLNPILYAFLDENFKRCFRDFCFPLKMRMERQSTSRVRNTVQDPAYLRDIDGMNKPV
Experiment: Displacement of [3H]U69593 from human recombinant kappa opioid receptor expressed in CHO cell membranes after 60 mins by scintillation counting method
pKi: −log10 of the molar value.
REPORTED ENDPOINT: pKi

>>> print(df.to_string())
                             chemical_smiles  reported_endpoint  value_reported
 0  CN1CC[C@]23c4c5ccc(O)c4O[C@H]2C2=C(CCC(=O)N2Cc2ccccc2)C[C@@]3(O)[C@H]1C5                pKi            8.70
 1  CCOC(=O)Cc1c2c(n(Cc3ccccc3)c1O)[C@@H]1Oc3c(O)ccc4c3[C@@]13CCN(C)[C@H](C4)[C@]3(O)C2                pKi            6.80
 2  CN1C(=O)[C@@H](CCO)CC2=C1[C@@H]1Oc3c(O)ccc4c3[C@@]13CCN(C)[C@H](C4)[C@]3(O)C2                pKi            6.74
 3  CN1CC[C@]23c4c5ccc(O)c4O[C@H]2C2=C(C[C@H](CCO)C(=O)N2Cc2ccccc2)C[C@@]3(O)[C@H]1C5                pKi            7.81
 4  CCOC(=O)Cc1c2c(n(Cc3ccccc3)c1O)[C@@H]1Oc3c(O)ccc4c3[C@@]13CCN(CC1CC1)[C@H](C4)[C@]3(O)C2                pKi            8.32
 5  O=C1CCC2=C([C@@H]3Oc4c(O)ccc5c4[C@@]34CCN(CC3CC3)[C@H](C5)[C@]4(O)C2)N1Cc1ccccc1                pKi            9.82
 6  O=C1[C@@H](CCO)CC2=C([C@@H]3Oc4c(O)ccc5c4[C@@]34CCN(CC3CC3)[C@H](C5)[C@]4(O)C2)N1Cc1ccccc1                pKi            8.56
 7  C[C@H]1CC2=C([C@@H]3Oc4c(O)ccc5c4[C@@]34CCN(CC3CC3)[C@H](C5)[C@]4(O)C2)N(Cc2ccccc2)C1=O                pKi            9.15
 8  CN1CC[C@]23c4c5ccc(O)c4O[C@H]2C2=C(C[C@@H](CCO)C(=O)N2Cc2ccccc2)C[C@@]3(O)[C@H]1C5                pKi            8.33
 9  C[C@@H]1CC2=C([C@@H]3Oc4c(O)ccc5c4[C@@]34CCN(CC3CC3)[C@H](C5)[C@]4(O)C2)N(Cc2ccccc2)C1=O                pKi            9.02
10  O=C1CCC2=C([C@@H]3Oc4c(O)ccc5c4[C@@]34CCN(CC3CC3)[C@H](C5)[C@]4(O)C2)N1CC1CCCCC1                pKi            9.48
11  O=C1[C@H](CCO)CC2=C([C@@H]3Oc4c(O)ccc5c4[C@@]34CCN(CC3CC3)[C@H](C5)[C@]4(O)C2)N1Cc1ccccc1                pKi            8.89
12  CN1C(=O)CCC2=C1[C@@H]1Oc3c(O)ccc4c3[C@@]13CCN(C)[C@H](C4)[C@]3(O)C2                pKi            7.69
13  CN1C(=O)[C@H](CCO)CC2=C1[C@@H]1Oc3c(O)ccc4c3[C@@]13CCN(C)[C@H](C4)[C@]3(O)C2                pKi            7.31

---

Molecular target: Mu-type opioid receptor (Homo sapiens)
Experiment: Displacement of [3H]DAMGO from human recombinant mu opioid receptor expressed in CHO cell membranes after 60 mins by scintillation counting method
REPORTED ENDPOINT: Ki (nM)

>>> df
                            chemical_smiles  value_reported
0  O=C1[C@@H](CCO)CC2=C([C@@H]3Oc4c(O)ccc5c4[C@@]34CCN(CC3CC3)[C@H](C5)[C@]4(O)C2)N1Cc1ccccc1            1.54
1  CCOC(=O)Cc1c2c(n(Cc3ccccc3)c1O)[C@@H]1Oc3c(O)ccc4c3[C@@]13CCN(C)[C@H](C4)[C@]3(O)C2            13.2
2  CCOC(=O)Cc1c2c(n(Cc3ccccc3)c1O)[C@@H]1Oc3c(O)ccc4c3[C@@]13CCN(CC1CC1)[C@H](C4)[C@]3(O)C2            8.65

---

Target: Mu-type opioid receptor (Homo sapiens)
Assay: Antagonist activity at human recombinant mu opioid receptor expressed in CHO cell membranes assessed as inhibition of DAMGO-induced response after 60 mins by [35S]GTPgammaS binding assay
Type: functional
Lab note: compare Ke with 2 nM, writing t if less and f if equal or more.

In [3]: df
Out[3]:
                            chemical_smiles  classification
0  O=C1[C@@H](CCO)CC2=C([C@@H]3Oc4c(O)ccc5c4[C@@]34CCN(CC3CC3)[C@H](C5)[C@]4(O)C2)N1Cc1ccccc1               t
1  CN1CC[C@]23c4c5ccc(O)c4O[C@H]2C2=C(C[C@@H](CCO)C(=O)N2Cc2ccccc2)C[C@@]3(O)[C@H]1C5               f
2  C[C@@H]1CC2=C([C@@H]3Oc4c(O)ccc5c4[C@@]34CCN(CC3CC3)[C@H](C5)[C@]4(O)C2)N(Cc2ccccc2)C1=O               t
3  C[C@H]1CC2=C([C@@H]3Oc4c(O)ccc5c4[C@@]34CCN(CC3CC3)[C@H](C5)[C@]4(O)C2)N(Cc2ccccc2)C1=O               t
4  O=C1[C@H](CCO)CC2=C([C@@H]3Oc4c(O)ccc5c4[C@@]34CCN(CC3CC3)[C@H](C5)[C@]4(O)C2)N1Cc1ccccc1               t
5  CCOC(=O)Cc1c2c(n(Cc3ccccc3)c1O)[C@@H]1Oc3c(O)ccc4c3[C@@]13CCN(CC1CC1)[C@H](C4)[C@]3(O)C2               f

---

Biological target: Mu-type opioid receptor (Homo sapiens, UniProt P35372)
Sequence (P35372 whole entry): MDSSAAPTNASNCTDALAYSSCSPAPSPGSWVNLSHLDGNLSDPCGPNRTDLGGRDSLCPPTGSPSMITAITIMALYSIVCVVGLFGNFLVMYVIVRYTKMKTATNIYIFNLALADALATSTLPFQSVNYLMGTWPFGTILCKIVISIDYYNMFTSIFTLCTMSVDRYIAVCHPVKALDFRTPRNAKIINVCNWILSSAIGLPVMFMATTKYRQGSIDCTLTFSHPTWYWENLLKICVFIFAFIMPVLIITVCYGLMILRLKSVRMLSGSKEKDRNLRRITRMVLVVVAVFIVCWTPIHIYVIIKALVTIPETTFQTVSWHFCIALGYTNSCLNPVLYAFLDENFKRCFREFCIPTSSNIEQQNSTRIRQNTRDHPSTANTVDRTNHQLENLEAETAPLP
Assay: Agonist activity at human recombinant mu opioid receptor expressed in CHO cell membranes after 60 mins by [35S]GTPgammaS binding assay
pEC50: −log10 of the molar value.
Classification field: criterion met = pEC50 at or over 7; criterion not met = pEC50 under 7.

>>> df
                            chemical_smiles     classification
0  CN1C(=O)[C@@H](CCO)CC2=C1[C@@H]1Oc3c(O)ccc4c3[C@@]13CCN(C)[C@H](C4)[C@]3(O)C2  criterion not met
1  CN1CC[C@]23c4c5ccc(O)c4O[C@H]2C2=C(CCC(=O)N2Cc2ccccc2)C[C@@]3(O)[C@H]1C5      criterion met
